TARGET UNDER TEST: AChE (EC 3.1.1.7) from electric eel (Electrophorus electricus, UniProt O42275)
Construct: purchased Sigma-Aldrich
Sequence (O42275 24-633): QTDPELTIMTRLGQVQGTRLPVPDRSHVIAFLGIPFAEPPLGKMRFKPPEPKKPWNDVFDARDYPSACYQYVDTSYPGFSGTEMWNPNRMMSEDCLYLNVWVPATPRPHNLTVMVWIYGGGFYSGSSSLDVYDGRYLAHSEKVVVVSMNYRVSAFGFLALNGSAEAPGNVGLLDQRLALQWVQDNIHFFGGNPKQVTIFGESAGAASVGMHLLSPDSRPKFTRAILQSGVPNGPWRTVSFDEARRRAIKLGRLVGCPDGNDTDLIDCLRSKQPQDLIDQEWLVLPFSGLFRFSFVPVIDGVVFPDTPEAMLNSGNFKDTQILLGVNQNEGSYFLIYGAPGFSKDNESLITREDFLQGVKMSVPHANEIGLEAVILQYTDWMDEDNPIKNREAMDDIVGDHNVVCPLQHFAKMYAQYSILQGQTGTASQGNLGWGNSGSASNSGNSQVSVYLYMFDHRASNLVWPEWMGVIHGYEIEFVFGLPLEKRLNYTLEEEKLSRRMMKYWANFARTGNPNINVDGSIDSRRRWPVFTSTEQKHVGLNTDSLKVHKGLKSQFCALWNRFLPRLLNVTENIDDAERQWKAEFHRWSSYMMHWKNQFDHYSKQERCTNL
TEST PROTOCOL: biochemical
Format: biochemical
TEST CONTEXT: eeAChE; mean ± SEM of triplicate independent experiments; read-out: AChE IC50
MEASUREMENT KIND: pIC50
To interpret pIC50, take it as minus log10 of a concentration measured in moles per litre.

Solved cases below.
>>> observed_value("Cn1c(=O)n(C)c2cc(S(=O)(=O)NCC3CCN(Cc4cccc(Cl)c4)CC3)ccc21 [Compound 15g]")
6.82
>>> observed_value("Cc1ccc(CN2CCC(CNC(=O)c3ccc4c(c3)n(C)c(=O)n4C)CC2)cc1")
4.59
>>> observed_value("COc1ccc(CN2CCC(CNC(=O)c3ccc4c(c3)n(C)c(=O)n4C)CC2)cc1")
5.29

Asked: Give AChE (EC 3.1.1.7) from electric eel (Electrophorus electricus, UniProt O42275) pIC50 for Cn1c(=O)n(C)c2cc(C(=O)NCC3CCN(Cc4cccc(Br)c4)CC3)ccc21
Given back: 5.43

Asked: Request: Cn1c(=O)n(C)c2cc(S(=O)(=O)NCC3CCN(Cc4cccc(F)c4)CC3)ccc21 [Compound 15f]
Given back: 5.98

Asked: Request: Cn1c(=O)n(C)c2cc(S(=O)(=O)NCC3CCN(Cc4ccccc4Br)CC3)ccc21 [Compound 15i]
Given back: 6.38

Asked: Request: Cn1c(=O)n(C)c2cc(S(=O)(=O)NCC3CCN(Cc4cccc(Br)c4)CC3)ccc21 [Compound 15j]
Given back: 6.41

Asked: Request: Cn1c(=O)n(C)c2cc(S(=O)(=O)NCC3CCN(Cc4ccccc4)CC3)ccc21 [Compound 15a]
Given back: 6.42

meta.source: paper PMC6968383
